Where these numbers come from: paper PMC10402871

Metric: melting point

CCCCOC(=O)C(=Cc1ccc(OC)c(OC)c1OC)NC(=O)c1cc(OC)c(OC)c(OC)c1 ... 118 to 120 °C
CCCOC(=O)/C(=C/c1ccc(OC)c(OC)c1OC)NC(=O)c1ccc(OC)c(OC)c1 ... 119 to 121 °C
CCOC(=O)/C(=C/c1ccc(OC)c(OC)c1OC)NC(=O)c1cc(OC)c(OC)c(OC)c1 ... 127 to 129 °C

Query :: Query (compound): COc1ccc(C(=O)N/C(=C\c2ccc(OC)c(OC)c2OC)C(=O)O)cc1OC ; field requested: melting point
Result :: 201 to 203 °C

Query :: Repeat with COC(=O)/C(=C/c1ccc(OC)c(OC)c1OC)NC(=O)c1ccc(OC)c(OC)c1
Result :: 177 to 179 °C

Query :: Repeat with COc1cc(C(=O)N/C(=C\c2ccc(OC)c(OC)c2OC)C(=O)O)cc(OC)c1OC
Result :: 217 to 219 °C

Query :: Repeat with CCCOC(=O)/C(=C/c1ccc(OC)c(OC)c1OC)NC(=O)c1cc(OC)c(OC)c(OC)c1
Result :: 111 to 113 °C

Query :: Repeat with COc1cc(C(=O)N/C(=C\c2ccc(OC)c(OC)c2OC)C(=O)OC(C)C)cc(OC)c1OC
Result :: 105 to 107 °C

Query :: Repeat with CCOC(=O)/C(=C/c1ccc(OC)c(OC)c1OC)NC(=O)c1ccc(OC)c(OC)c1
Result :: 154 to 156 °C

Query :: Repeat with CCCCOC(=O)/C(=C/c1ccc(OC)c(OC)c1OC)NC(=O)c1ccc(OC)c(OC)c1
Result :: 132 to 134 °C
